Taken from ChEMBL document CHEMBL1140916.

- Tested on: Hepatitis C virus
- PROTOCOL SUMMARY: Antiviral activity against HCV infected in human Huh5-2 cells assessed as reduction of virus-induced cytopathogenicity after 4 days
- Format: functional, organism-based, Hepacivirus hominis
- ASSAY CONDITIONS: Huh-5-2, 96 h
pEC50: −log10 of the molar value.
MEASURED PARAMETER: pEC50

Answered examples (10):
MOLECULAR STRING: CC(=O)OC[C@H]1O[C@@H](n2c(=S)[nH]c3ccccc32)[C@H](OC(C)=O)[C@@H](OC(C)=O)[C@@H]1OC(C)=O
TARGET OR SYSTEM: Hepatitis C virus
pEC50: 3.98

MOLECULAR STRING: COc1cccc2cc(CSc3nc4cncnc4[nH]3)c(=O)oc12
TARGET OR SYSTEM: Hepatitis C virus
pEC50: 4.70

MOLECULAR STRING: CC(=O)OC[C@H]1O[C@@H](n2c(SCc3cc4cc(Br)ccc4oc3=O)nc3cc(Cl)c(Cl)cc32)C[C@@H](OC(C)=O)[C@@H]1OC(C)=O
TARGET OR SYSTEM: Hepatitis C virus
pEC50: 5.74

MOLECULAR STRING: O=c1oc2ccccc2cc1CSc1nc2ccccc2[nH]1
TARGET OR SYSTEM: Hepatitis C virus
pEC50: 4.57

MOLECULAR STRING: CC(=O)OC[C@H]1O[C@@H](n2c(SCc3cc4cc(Br)ccc4oc3=O)nc3ccccc32)C[C@@H](OC(C)=O)[C@@H]1OC(C)=O
TARGET OR SYSTEM: Hepatitis C virus
pEC50: 5.39

MOLECULAR STRING: Cc1ccc2[nH]c(SCc3ccncc3)nc2c1
TARGET OR SYSTEM: Hepatitis C virus
pEC50: 3.70

MOLECULAR STRING: O=c1oc2ccccc2cc1CSc1nc2ccccc2o1
TARGET OR SYSTEM: Hepatitis C virus
pEC50: 4.92

MOLECULAR STRING: O=c1oc2ccccc2cc1CSc1nc2cc(Cl)c(Cl)cc2[nH]1
TARGET OR SYSTEM: Hepatitis C virus
pEC50: 4.82

MOLECULAR STRING: CC(=O)OC[C@H]1O[C@@H](n2c(SCc3ccc([N+](=O)[O-])cc3)nc3ccccc32)[C@H](OC(C)=O)[C@@H](OC(C)=O)[C@@H]1OC(C)=O
TARGET OR SYSTEM: Hepatitis C virus
pEC50: 4.20

MOLECULAR STRING: O=c1oc2ccccc2cc1CSc1nc2ccccc2s1
TARGET OR SYSTEM: Hepatitis C virus
pEC50: 4.10

P: Clc1cc2nc(SCc3ccncc3)[nH]c2cc1Cl
Q: COc1cccc2cc(CSc3nc4ccccc4n3[C@H]3C[C@@H](OC(C)=O)[C@H](OC(C)=O)[C@@H](COC(C)=O)O3)c(=O)oc12
R: COc1cccc2cc(CSc3nc4ccccc4o3)c(=O)oc12
S: Fc1ccc2[nH]c(SCc3ccccc3)nc2c1
Problem: List items by pEC50 in falling order. # list labels per requested ordering
Solution: Q, R, P, S

1: O=c1oc2ccc(Br)cc2cc1CSc1nc2ccccc2o1
2: O=c1oc2ccccc2cc1CSc1nc2cccnc2[nH]1
3: Fc1ccc2[nH]c(SCc3ccncc3)nc2c1
Problem: Reorder the items by pEC50, least to greatest. # list labels per requested ordering
Solution: 3, 2, 1
(3: 3.74, 2: 4.23, 1: 4.92)

###

- Tested on: Hepatitis C virus
- PROTOCOL SUMMARY: Antiviral activity against HCV infected in human Huh5-2 cells assessed as reduction of virus-induced cytopathogenicity after 4 days
- Type: functional, organism-based, Hepacivirus hominis
- ASSAY CONDITIONS: Huh-5-2, 96 h
MEASURED PARAMETER: EC50 (µM)

Answered examples (2):
MOLECULAR STRING: COc1cccc2cc(CSc3nc4ccccc4[nH]3)c(=O)oc12
TARGET OR SYSTEM: Hepatitis C virus
EC50 / µM: 10

MOLECULAR STRING: O=c1oc2ccccc2cc1CSc1nc2cncnc2[nH]1
TARGET OR SYSTEM: Hepatitis C virus
EC50 / µM: 2

1: COc1cccc2cc(CSc3nc4cccnc4[nH]3)c(=O)oc12
2: O=c1oc2ccc(Br)cc2cc1CSc1nc2cccnc2[nH]1
3: COc1cccc2cc(CSc3nc4ccccc4s3)c(=O)oc12
4: c1ccc2cc(CSc3nc4ccccc4[nH]3)ccc2c1
Problem: List items by EC50 in falling order. # list labels per requested ordering
Solution: 4, 3, 1, 2

###

- PROTOCOL SUMMARY: Selectivity index, ratio of CC50 for human Huh 5-2 cells to EC50 for HCV
MEASURED PARAMETER: Ratio CC50/EC50
The answer should be a number; do not append a unit.

Problem: Answer with reported Ratio CC50/EC50 of Cc1ccc2[nH]c(SCc3ccncc3)nc2c1
Solution: 1

Problem: Answer with reported Ratio CC50/EC50 of CC(=O)OC[C@H]1O[C@@H](n2c(=S)[nH]c3ccccc32)[C@H](OC(C)=O)[C@@H](OC(C)=O)[C@@H]1OC(C)=O
Solution: 1

Problem: Answer with reported Ratio CC50/EC50 of O=c1oc2ccccc2cc1CSc1nc2ccccc2o1
Solution: 3.9

Problem: Answer with reported Ratio CC50/EC50 of O=c1oc2ccc(Br)cc2cc1CSc1nc2cccnc2[nH]1
Solution: 19

Problem: Answer with reported Ratio CC50/EC50 of COc1cccc2cc(CSc3nc4ccccc4o3)c(=O)oc12
Solution: 0.96

Problem: Answer with reported Ratio CC50/EC50 of COc1cccc2cc(CSc3nc4ccccc4s3)c(=O)oc12
Solution: 1.4

###

- PROTOCOL SUMMARY: Selectivity index, ratio of CC50 for human Huh 5-2 cells to EC50 for HCV
MEASURED PARAMETER: Ratio CC50/EC50
The answer should be a number; do not append a unit.

MOLECULAR STRING: O=c1oc2ccccc2cc1CSc1nc2ccccc2s1
QUANTITATIVE READOUT: 1.9
--
MOLECULAR STRING: CC(=O)OC[C@H]1O[C@@H](n2c(SCc3cc4cc(Br)ccc4oc3=O)nc3cc(Cl)c(Cl)cc32)C[C@@H](OC(C)=O)[C@@H]1OC(C)=O
QUANTITATIVE READOUT: 6.4
--
MOLECULAR STRING: O=c1oc2ccccc2cc1CSc1nc2ccccc2[nH]1
QUANTITATIVE READOUT: 3.4
--
MOLECULAR STRING: COc1cccc2cc(CSc3nc4cncnc4[nH]3)c(=O)oc12
QUANTITATIVE READOUT: 4.8

Now turn to the next molecule.
Problem: Answer with reported Ratio CC50/EC50 of O=c1oc2ccc(Br)cc2cc1CSc1nc2ccccc2o1
Solution: 11

###

- PROTOCOL SUMMARY: Cytotoxicity against HCV infected human Huh5-2 cells assessed as microscopically detectable alteration in cell morphology after 3 days
- Type: cell-based, Huh-5-2
- ASSAY CONDITIONS: HCV infected Huh5-2 cells
MEASURED PARAMETER: CC50 at 72 h (µM)
Give the value, in units of µM, as a plain number.

MOLECULAR STRING: O=c1oc2ccccc2cc1CSc1nc2cc(Cl)c(Cl)cc2[nH]1
CC50 at 72 h / µM: 74

Problem: Answer with reported CC50 at 72 h of O=c1oc2ccccc2cc1CSc1nc2cncnc2[nH]1
Solution: 109

Problem: Answer with reported CC50 at 72 h of COc1cccc2cc(CSc3nc4ccccc4o3)c(=O)oc12
Solution: 18

Problem: Answer with reported CC50 at 72 h of Cc1ccc2[nH]c(SCc3ccncc3)nc2c1
Solution: 199

###

- PROTOCOL SUMMARY: Cytotoxicity against HCV infected human Huh5-2 cells assessed as microscopically detectable alteration in cell morphology after 3 days
- Assay type: cell-based, Huh-5-2
- ASSAY CONDITIONS: HCV infected Huh5-2 cells
MEASURED PARAMETER: CC50 at 72 h (µM)
Give the value, in units of µM, as a plain number.

Answered examples (4):
MOLECULAR STRING: CC(=O)OC[C@H]1O[C@@H](n2c(SCc3ccc([N+](=O)[O-])cc3)nc3ccccc32)[C@H](OC(C)=O)[C@@H](OC(C)=O)[C@@H]1OC(C)=O
QUANTITATIVE READOUT: 83
--
MOLECULAR STRING: Clc1cc2nc(SCc3ccncc3)[nH]c2cc1Cl
QUANTITATIVE READOUT: 107
--
MOLECULAR STRING: O=c1oc2ccccc2cc1CSc1nc2cccnc2[nH]1
QUANTITATIVE READOUT: 95
--
MOLECULAR STRING: COc1cccc2cc(CSc3nc4ccccc4[nH]3)c(=O)oc12
QUANTITATIVE READOUT: 27

Now turn to the next compound.
Problem: Answer with reported CC50 at 72 h of O=c1oc2ccc(Br)cc2cc1CSc1nc2cccnc2[nH]1
Solution: 128
